Reference source: ChEMBL document CHEMBL4513216

System: Plasmodium berghei
Assay: Screen against P. berghei liver stage (PbLuc), transformed with Luciferase, at 2uM
Type: functional, HepG2
Conditions: tested at 2 uM
Out of some 68,000 compounds screened, about 2,700 (4%) showed an effect of 50% or more. Shown is part of a subset that was picked to be rich in strong results.
Parameter INHIBITION: see the listing below.
assayMetric: INHIBITION (%)

INSERT INTO results (compound, reportedresult) VALUES
  ('CCc1ccc(CN2CCC3(CCCN(C(=O)c4cnccn4)C3)C2)o1 (stereo unspecified)', -26.14),
  ('Cc1c(NC(=O)CN2CCN(C3CCCC3)C(=O)C2)cnn1C', 17.24),
  ('CCCS(=O)(=O)N1CCCN(CCCOC)CC1', -14.94),
  ('CN(C)C(=O)CN1CCC(c2c(C(N)=O)sc3ncccc23)C1 (stereo unspecified)', -21.9),
  ('Cc1cnc(Nc2cccc(C3CCCN3Cc3cn(C)nc3C)n2)s1 (stereo unspecified)', -15.38),
  ('CSc1nc2ncc3c(=O)n(C)ccc3n2n1', 19.49),
  ('CC(NC(=O)CSCC(N)=O)c1ccc(Oc2ccccc2)cc1 (stereo unspecified)', 29.97),
  ('Cc1cc(C(=O)NCCc2cn3nc(C)sc3n2)c(C)o1', 55.66),
  ('COc1ccc(C2CCCCCN2Cc2nnc(C)o2)cc1 (stereo unspecified)', 52.83),
  ('Cc1nonc1CN(C)c1nc(-c2ccco2)nc2c1CCN(C)CC2', 38.91),
  ('Cc1cc(CN(C)c2nc(-c3ccco3)nc3c2CCN(C)CC3)on1', 67.05);

###

Parameter INHIBITION: see the listing below.
Tested on: Plasmodium berghei
Experiment: Screen against P. berghei liver stage (PbLuc), transformed with Luciferase, at 2uM
Format: functional, HepG2
Conditions: tested at 2 uM
The whole screen tested about 68,000 compounds, of which about 2,700 (4%) showed an effect of 50% or more. What follows is part of a selection rich in strong results, with near analogues and random picks from the rest.
assayMetric: INHIBITION (%)

INSERT INTO results (compound, testtarget, assaymetric, measurementunit, reportedresult) VALUES
  ('CNC(=O)c1ccc(N(C)C2CCC2)nn1', 'Plasmodium berghei', 'INHIBITION', '%', 67.28),
  ('O=c1c2sccc2nc2n1CCN(Cc1ccsc1)CC2', 'Plasmodium berghei', 'INHIBITION', '%', 63.66),
  ('O=S(=O)(NC1CCC12CCN(CC1CC1)CC2)c1ccccc1 (centres undefined)', 'Plasmodium berghei', 'INHIBITION', '%', -3.36),
  ('Cc1nn(C)c(Cl)c1C1CCCN1CC(=O)N1CCCCC1 (centres undefined)', 'Plasmodium berghei', 'INHIBITION', '%', -0.9),
  ('CSc1ncccc1C(=O)Nc1ccc(Cn2ccccc2=O)cc1', 'Plasmodium berghei', 'INHIBITION', '%', 52.45),
  ('COc1cccc(CN(C)CCCn2cnc3c(N)ncnc32)c1', 'Plasmodium berghei', 'INHIBITION', '%', -51.87),
  ('Cc1nn(C)c(C)c1C1CCCN1Cc1cccc(C(N)=O)c1 (centres undefined)', 'Plasmodium berghei', 'INHIBITION', '%', 15.91),
  ('O=C(Cc1ccc(F)cc1)NCCNCc1cccc(O)c1', 'Plasmodium berghei', 'INHIBITION', '%', -49.9),
  ('Cc1cc(C)c(CNC(=O)NCCCNc2ccccn2)c(=O)[nH]1', 'Plasmodium berghei', 'INHIBITION', '%', 34.65),
  ('Cc1nn(C)c(C)c1C1CCCN1Cc1cccc(OCC(N)=O)c1 (centres undefined)', 'Plasmodium berghei', 'INHIBITION', '%', 35.94),
  ('CC(=O)N1CCN(C(=O)CN2CCCC2c2c(C)nn(C)c2C)CC1 (centres undefined)', 'Plasmodium berghei', 'INHIBITION', '%', 60.6),
  ('Cc1nc(-c2nnc[nH]2)sc1C(=O)N1CCCC1c1ccsc1 (centres undefined)', 'Plasmodium berghei', 'INHIBITION', '%', -26.81),
  ('O=C(NC1CCN(c2ccccc2OC(F)F)C1)c1c[nH]nn1 (centres undefined)', 'Plasmodium berghei', 'INHIBITION', '%', 31.3),
  ('Cc1cc(N2CCN(Cc3ccccc3)CC(O)C2)cc(C)n1 (centres undefined)', 'Plasmodium berghei', 'INHIBITION', '%', 74.94),
  ('Cc1c(Cl)cc(C(=O)N(CCO)Cc2nccn2C)cc1Cl', 'Plasmodium berghei', 'INHIBITION', '%', 55.84),
  ('O=C(NC1CCCN(c2ccccc2Cl)C1)c1ccc(=O)[nH]n1 (centres undefined)', 'Plasmodium berghei', 'INHIBITION', '%', 42.88),
  ('CCn1nc(C)cc1C(=O)N1CC[C@H](OC)[C@H]2CN(CC3CC3)C[C@H]21', 'Plasmodium berghei', 'INHIBITION', '%', 24.51),
  ('Cc1nc(COc2ccc(N(C)S(C)(=O)=O)cc2)sc1C', 'Plasmodium berghei', 'INHIBITION', '%', -26.08),
  ('CSc1ncccc1C(=O)NCc1ccc(N(C)C)cc1', 'Plasmodium berghei', 'INHIBITION', '%', 10.65),
  ('Cc1nc2ccccc2nc1CN1CCCC1c1c(C)nn(C)c1C (centres undefined)', 'Plasmodium berghei', 'INHIBITION', '%', 28.51),
  ('O=S(=O)(NC1CCC12CCN(CC1CCOCC1)CC2)c1ccccc1 (centres undefined)', 'Plasmodium berghei', 'INHIBITION', '%', 51.36),
  ('CCS(=O)(=O)N1Cc2ncn(CC3CC3)c2C(COC)C1 (centres undefined)', 'Plasmodium berghei', 'INHIBITION', '%', 26.19),
  ('CO[C@@H]1CCN(C(=O)c2ccsc2)[C@@H]2CN(CC3CC3)C[C@@H]21', 'Plasmodium berghei', 'INHIBITION', '%', 54.01),
  ('Cc1noc(C)c1CN1CCc2ncc(CN(C)C)n2CC1', 'Plasmodium berghei', 'INHIBITION', '%', 1.48),
  ('Cc1ncccc1C(=O)Nc1cccc(Cn2ccccc2=O)c1', 'Plasmodium berghei', 'INHIBITION', '%', 45.67),
  ('CN(c1ccc(C(N)=O)nn1)C1CCC1', 'Plasmodium berghei', 'INHIBITION', '%', -35.26),
  ('Cc1cc(C)n(CCC2CC(=O)Nc3cc(O)c(C)cc32)n1 (centres undefined)', 'Plasmodium berghei', 'INHIBITION', '%', -32.52),
  ('CO[C@H]1CCN(C(=O)Cc2ccsc2)[C@@H]2CN(CC3CC3)C[C@H]12', 'Plasmodium berghei', 'INHIBITION', '%', 22.16),
  ('OC1CN(Cc2ccccc2)CCN(c2ccncc2)C1 (centres undefined)', 'Plasmodium berghei', 'INHIBITION', '%', 1.42),
  ('Cn1ccnc1CN(CCO)C(=O)c1cc2ccccc2o1', 'Plasmodium berghei', 'INHIBITION', '%', 22.27),
  ('O=C(O)c1csc(S(=O)(=O)N2CCCc3cccc(OC(F)F)c32)c1', 'Plasmodium berghei', 'INHIBITION', '%', -58.31),
  ('Cc1cc(C)nc(NC(C)Cc2cnccn2)n1 (centres undefined)', 'Plasmodium berghei', 'INHIBITION', '%', 4.42),
  ('COc1cccc(S(=O)(=O)N2CCCc3c(OC)nn(C)c3C2)c1', 'Plasmodium berghei', 'INHIBITION', '%', 39.57),
  ('O=C(Cc1cccc(F)c1)NCCNCc1cccc(O)c1', 'Plasmodium berghei', 'INHIBITION', '%', 57.33),
  ('COc1cccc(SCCCn2cnc3c(N)ncnc32)c1', 'Plasmodium berghei', 'INHIBITION', '%', 52.19),
  ('COc1cccc(CN2CCCC2c2ccc[nH]2)c1 (centres undefined)', 'Plasmodium berghei', 'INHIBITION', '%', 68.02),
  ('O=C(Cc1c(F)cccc1F)N1CCN(CC(=O)N2CCCC2)CC1', 'Plasmodium berghei', 'INHIBITION', '%', 57.95),
  ('CCn1cc(S(=O)(=O)N2CCC3(CCCN(CC4CCC4)C3=O)C2)cn1 (centres undefined)', 'Plasmodium berghei', 'INHIBITION', '%', 13.58),
  ('Cc1nn(C)c(C)c1C1CCCN1Cc1nc2ccccc2n1C (centres undefined)', 'Plasmodium berghei', 'INHIBITION', '%', 53.11),
  ('COCCNC(=O)N1CC(Cc2ccccc2F)C1', 'Plasmodium berghei', 'INHIBITION', '%', -41.64),
  ('COc1nn(C)c2c1CCCN(S(=O)(=O)c1cccc(C)c1)C2', 'Plasmodium berghei', 'INHIBITION', '%', 23.43),
  ('O=C(C1CCOCC1)N1C[C@@H]2CC[C@H]1CN(C1Cc3ccccc3C1)C2', 'Plasmodium berghei', 'INHIBITION', '%', 27.33),
  ('O=C(CS(=O)(=O)Cc1ccc(F)cc1)NCc1ccccc1F', 'Plasmodium berghei', 'INHIBITION', '%', -54.34),
  ('COC(=O)c1ccc(N(C)C2CCC2)nn1', 'Plasmodium berghei', 'INHIBITION', '%', 24.36);
